Data origin, for the record: PubChem BioAssay

Listing: z-score of selected molecules
experimental-details: modulators of S6 phosphorylation in cells, primary screen, cell-based, A549, cytoblot, luminescence, serum-stimulated (AID 1158);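 note: serum-stimulated A549 lung adenocarcinoma cells; signal is phosphorylated S6 detected by cytoblot immunostaining with HRP secondary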
measurement-setup: A549 phospho-S6 cytoblot, 5 h, higher = more signal
// print number alone

Example cases with answers are listed next.
[
  {
    "molecule": "C[C@@H](c1ccccc1)N1C(=O)[C@H]2[C@H]3[C@H](O)[C@H](O)CC(=NOCc4ccccc4)[C@H]3CC[C@H]2C1=O",
    "z-score": -0.182
  },
  {
    "molecule": "CC(C)CCN1CCc2nc(COc3ccccc3)c3c(c2C1)CO[C@@H](C)C3",
    "z-score": -0.356
  },
  {
    "molecule": "CON=C[C@@H](NS(=O)(=O)c1ccc(C)cc1)[C@H](C)C=CCC(=O)OC",
    "z-score": 0.22
  },
  {
    "molecule": "O=c1n(-c2ccccc2)c(=O)n2n1CC[C@@H]1C(=NOCc3ccccc3)[C@H]3O[C@H]3[C@@H](O)[C@@H]12",
    "z-score": -0.302
  },
  {
    "molecule": "CCOC(=O)[C@H](CC(C)C)NC(=O)CCC1CC(OC(=O)NCCc2ccc(F)cc2)CC2(CCCC(COC(=O)NCCc3ccc(Cl)cc3)O2)O1 (some centres not stated)",
    "z-score": -0.146
  }
]

Lookup: Please look at this molecule and report its z-score: COC(=O)[C@H](C)NC(=O)CCC1CC(OC(=O)NCc2ccc3c(c2)OCO3)CC2(CCCC(COC(=O)NCC3CCCCC3)O2)O1 (some centres not stated)
Found: 0.224

Lookup: Please look at this molecule and report its z-score: CCOC(=O)[C@H](CC(C)C)NC(=O)CCC1CC(OC(=O)NCCc2ccc(F)cc2)CC2(CCCC(COC(=O)NCC(c3ccccc3)c3ccccc3)O2)O1 (some centres not stated)
Found: 0.0441

Lookup: Please look at this molecule and report its z-score: COc1cccc([C@H]2Oc3ccc(OC)cc3C(=NO[C@@H](C)c3cn([C@H](CO)Cc4ccccc4)nn3)[C@@H]2O)c1
Found: -0.15

Lookup: Please look at this molecule and report its z-score: CCOC(=O)[C@H](CC(C)C)NC(=O)CCC1CC(OC(=O)NCc2ccc3c(c2)OCO3)CC2(CCCC(COC(=O)NCC(c3ccccc3)c3ccccc3)O2)O1 (some centres not stated)
Found: -0.438

Lookup: Please look at this molecule and report its z-score: CC(=O)OC[C@H]1O[C@@H](ON=C(C)CCN2CCCc3nc(C)c(C)cc32)[C@H](OC(C)=O)[C@@H](OC(C)=O)[C@@H]1OC(C)=O
Found: 0.649

Lookup: Please look at this molecule and report its z-score: Cc1ccc(S(=O)(=O)N[C@@H]2COC(=O)[C@@H](C)COC(=O)CC=C[C@H]2C)cc1
Found: -0.0223

Lookup: Please look at this molecule and report its z-score: CCOC(=O)[C@H](CC(C)C)NC(=O)CCC1CC(OC(=O)NCCc2ccc(F)cc2)CC2(CCCC(COC(=O)NCC3CCCCC3)O2)O1 (some centres not stated)
Found: 0.673
